assay: decreased DLD-1 cellular survival, CellTiter-Glo luminescent readout, NPC compound collection, primary HTS (AID 1117346); conditions: DLD-1 viability, CellTiter-Glo luminescence; at 20 µM (top of the series)
Active and inactive are the calls of the source.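 The calls were made as follows: active = compounds that lower survival of DLD-1 colon cancer cells in the luminescence readout, no cutoff given; inactive = the rest.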
Outcomes: True = active, False = inactive

[[record]]
compound = "C[C@]12C=CC(=O)C=C1CC[C@@H]1[C@@H]2[C@@H](O)C[C@@]2(C)[C@H]1CC[C@]2(O)C(=O)CO"
label_class = "False"

[[record]]
compound = "CCC(=O)O[C@]1(C(=O)CCl)[C@@H](C)C[C@H]2[C@@H]3CCC4=CC(=O)C=C[C@]4(C)[C@@]3(F)[C@@H](O)C[C@@]21C"
label_class = "False"

[[record]]
compound = "Fc1ccc([C@@H]2CCNC[C@H]2COc2ccc3c(c2)OCO3)cc1"
label_class = "False"

[[record]]
compound = "CCOC(=O)c1cccnc1"
label_class = "False"

[[record]]
compound = "CCCCCCCCCCCCCC[N+](C)(C)C"
label_class = "True"

[[record]]
compound = "CC(=O)Oc1ccc(C2(c3ccc(OC(C)=O)cc3)C(=O)Nc3ccccc32)cc1"
label_class = "False"

[[record]]
compound = "O=C(Cn1ccnc1[N+](=O)[O-])NCc1ccccc1"
label_class = "False"

[[record]]
compound = "COc1cc(C(=O)N2CCCCCCC2)cc(OC)c1OC"
label_class = "False"

[[record]]
compound = "O=S(=O)(O)CCS"
label_class = "False"

[[record]]
compound = "Cc1c(C(=O)NCCO)[n+](=O)c2ccccc2n1[O-]"
label_class = "False"

[[record]]
compound = "CC(=O)N/N=C/c1ccc([N+](=O)[O-])o1"
label_class = "True"

[[record]]
compound = "CCOC(=O)N1CCC(n2c(=O)[nH]c3cc(Cl)ccc32)CC1"
label_class = "False"

[[record]]
compound = "OCCN1CCN(CCCN2c3ccccc3Sc3ccc(Cl)cc32)CC1"
label_class = "True"

[[record]]
compound = "C=CCN1CCc2nc(N)sc2CC1"
label_class = "False"

[[record]]
compound = "Oc1cccc(-c2c3nc(c(-c4cccc(O)c4)c4ccc([nH]4)c(-c4cccc(O)c4)c4nc(c(-c5cccc(O)c5)c5ccc2[nH]5)CC4)C=C3)c1"
label_class = "True"

[[record]]
compound = "NC(=O)NS(=O)(=O)c1ccc(Cl)cc1"
label_class = "False"

[[record]]
compound = "CN[C@H]1CC[C@@H](c2ccc(Cl)c(Cl)c2)c2ccccc21"
label_class = "True"

[[record]]
compound = "CO[C@@H]1[C@@H](OC)[C@H](C)[C@@](O)(CC(=O)O)O[C@H]1[C@H](C)[C@H]1O[C@@]2(CC[C@@](C)([C@H]3CC[C@@](C)([C@@H]4O[C@@H]([C@H]5O[C@](C)(O)[C@H](C)C[C@@H]5C)C[C@@H]4OC4C[C@H](OC)[C@@H](OC)[C@H](C)O4)O3)O2)C[C@H](O)[C@H]1C (some centres not stated)"
label_class = "True"

[[record]]
compound = "Clc1cccc(Cl)c1NC1=NCCN1"
label_class = "False"

[[record]]
compound = "Nc1ccc(S(=O)(=O)Nc2ccccc2)cc1"
label_class = "False"

[[record]]
compound = "C=Cc1c(C)c2cc3nc(cc4[nH]c(cc5nc(cc1[nH]2)C(C)=C5CCC(=O)O)c(CCC(=O)OC)c4C)[C@@]1(C)C3=CC=C(C(=O)OC)[C@@H]1C(=O)OC"
label_class = "True"

[[record]]
compound = "CC(C)NC(=O)c1ccc(C=O)cc1"
label_class = "False"

[[record]]
compound = "CC1COc2c(N3CCN(C)CC3)c(F)cc3c(=O)c(C(=O)O)cn1c23 (configuration not stated)"
label_class = "False"

[[record]]
compound = "CCN(CC)CC(=O)Nc1c(C)cccc1C(=O)OC"
label_class = "False"

[[record]]
compound = "CC1(C)OC(=O)Nc2ccc(Br)cc21"
label_class = "False"

[[record]]
compound = "COc1ccc(Cl)cc1C(=O)NCCc1ccc(S(=O)(=O)NC(=O)NC2CCCCC2)cc1"
label_class = "False"

[[record]]
compound = "CC(=O)Nc1ccc(/C=N/NC(N)=S)cc1"
label_class = "False"

[[record]]
compound = "CCOC(=O)C1=C(O)c2ccccc2S(=O)(=O)N1C"
label_class = "False"

[[record]]
compound = "CC(C)[C@H]1CC[C@H](C)C[C@H]1O"
label_class = "True"

[[record]]
compound = "CCCCN=C(N)N=C(N)N"
label_class = "False"

[[record]]
compound = "CC[N+](C)(C)c1cccc(O)c1"
label_class = "False"

[[record]]
compound = "O=C(CCN1CCN2CCCC2C1)N1c2ccccc2Sc2ccc(Cl)cc21 (configuration not stated)"
label_class = "False"

[[record]]
compound = "CCCN(CCc1cccs1)[C@H]1CCc2c(O)cccc2C1"
label_class = "False"

[[record]]
compound = "COc1ccc([C@@H]2CC(=O)c3c(O)cc(O[C@@H]4O[C@H](CO[C@@H]5O[C@@H](C)[C@H](O)[C@@H](O)[C@@H]5O)[C@@H](O)[C@H](O)[C@@H]4O)cc3O2)cc1O"
label_class = "False"

[[record]]
compound = "COc1ccc2cc(CCC(C)=O)ccc2c1"
label_class = "True"

[[record]]
compound = "CCCNC(=O)NS(=O)(=O)c1ccc(Cl)cc1"
label_class = "False"

[[record]]
compound = "CCCCCCCC/C=C/C(=O)O"
label_class = "False"

[[record]]
compound = "NCCc1ccc(O)c(O)c1"
label_class = "False"

[[record]]
compound = "c1ccc(C(O[C@H]2CCCN(CCc3ccc4c(c3)OCO4)C2)c2ccccc2)cc1"
label_class = "True"

[[record]]
compound = "CO/N=C(/C(=O)N[C@@H]1C(=O)N2C(C(=O)[O-])=C(C[n+]3ccn4ncccc43)CS[C@H]12)c1nsc(N)n1"
label_class = "False"

[[record]]
compound = "CCC(=O)Oc1ccc2c(c1)CC[C@@H]1[C@H]2CC[C@]2(C)[C@@H](OC(=O)CC)CC[C@@H]12"
label_class = "False"

[[record]]
compound = "CCN(CC)CCOC(=O)C1(C2CCCCC2)CCCCC1"
label_class = "False"

